All values here come from paper PMC10408569.

Test system: HT29
Assay: NCI-60 anticancer screening (SRB)
Assay type: cell-based
Conditions: Homo sapiens, HT-29; HT29, colon cancer; one dose 10 μM; read-out: Growth Inhibition Percentage (GI %)
Answer n if inhibition at 10 µM is under 40%, and y if it is 40% or more.

CCOC(=O)C1=C(N)N(c2ccccc2)C2=C(C(=O)CC(C)(C)C2)C1c1cccc(Cl)c1Cl (racemic) [10a] :: n

Here's the next entry for you.
Problem: Test whether the compound CCOC(=O)C1=C(N)N(c2ccc(Cl)cc2)C2=C(C(=O)CC(C)(C)C2)C1c1ccc(OC)cc1 (racemic) [8h] records inhibition at 10 µM of 40% or higher.
Solution: n

----------
System: NCI-H460
Test: NCI-60 anticancer screening (SRB)
Type: cell-based
Details: Homo sapiens; NCI-H460, NSC lung cancer; one dose 10 μM; read-out: Growth Inhibition Percentage (GI %)
Recorded inhibition at 10 µM, one value per entry.

Reference set (5 entries):
CCOC(=O)C1=C(N)N(c2ccc(Cl)cc2)C2=C(C(=O)CC(C)(C)C2)C1c1ccc(Cl)cc1Cl (racemic) [10d] :: 49%
CCOC(=O)C1=C(N)N(c2ccc(Cl)cc2)C2=C(C(=O)CC(C)(C)C2)C1c1cccnc1 (racemic) [12f] :: < 10%
CCOC(=O)C1=C(N)N(c2ccc(C)cc2)C2=C(C(=O)CC(C)(C)C2)C1c1ccccc1Cl (racemic) :: 20%
CCOC(=O)C1=C(N)N(c2ccccc2)C2=C(C(=O)CC(C)(C)C2)C1c1cccnc1 (racemic) [12d] :: < 10%
CCOC(=O)C1=C(N)N(c2ccc(Cl)cc2)C2=C(C(=O)CC(C)(C)C2)C1c1ccc(OC)cc1 (racemic) :: < 10%

Problem: Name the reported inhibition at 10 µM value associated with the molecule CCOC(=O)C1=C(N)N(c2ccc(Cl)cc2)C2=C(C(=O)CC(C)(C)C2)C1c1ccccc1Cl (racemic)
Solution: 58%

Problem: Further, for CCOC(=O)C1=C(N)N(c2ccc(C)cc2)C2=C(C(=O)CC(C)(C)C2)C1c1ccc([N+](=O)[O-])cc1 (racemic) ?
Solution: < 10%

Problem: Request: CCOC(=O)C1=C(N)N(c2ccc(Cl)cc2)C2=C(C(=O)CC(C)(C)C2)C1c1ccc(F)cc1 (racemic)
Solution: < 10%

Problem: What about this molecule? CCOC(=O)C1=C(N)N(c2ccc(Cl)cc2)C2=C(C(=O)CC(C)(C)C2)C1c1cccc(Cl)c1Cl (racemic) [10b]
Solution: 53%

Problem: Okay, and CCOC(=O)C1=C(N)N(c2ccc(C)cc2)C2=C(C(=O)CC(C)(C)C2)C1c1ccc(OC)cc1 (racemic) ?
Solution: < 10%

Problem: Record: CCOC(=O)C1=C(N)N(c2ccccc2)C2=C(C(=O)CC(C)(C)C2)C1c1ccc(F)cc1 (racemic)
Solution: < 10%

Problem: Check CCOC(=O)C1=C(N)N(c2ccccc2)C2=C(C(=O)CC(C)(C)C2)C1c1ccc([N+](=O)[O-])cc1 (racemic) too.
Solution: < 10%

Problem: Same lookup for CCOC(=O)C1=C(N)N(c2ccccc2)C2=C(C(=O)CC(C)(C)C2)C1c1ccc(N2CCOCC2)cc1 (racemic) , please.
Solution: < 10%

Problem: Thanks! And CCOC(=O)C1=C(N)N(c2ccc(C)cc2)C2=C(C(=O)CC(C)(C)C2)C1c1ccccn1 (racemic) [12b] ?
Solution: < 10%

Problem: Can you handle CCOC(=O)C1=C(N)N(c2ccccc2)C2=C(C(=O)CC(C)(C)C2)C1c1cccc(Cl)c1Cl (racemic) [10a] next?
Solution: 39%

----------
Test system: U251
Assay: NCI-60 anticancer screening (SRB)
Assay type: cell-based
Settings: Homo sapiens, U-251; U251, CNS cancer; one dose 10 μM; read-out: Growth Inhibition Percentage (GI %)
test.readout: inhibition at 10 µM

Below: 3 compounds and their reported inhibition at 10 µM.
CCOC(=O)C1=C(N)N(c2ccccc2)C2=C(C(=O)CC(C)(C)C2)C1c1ccc(Cl)cc1 (racemic) [8c] :: 58%
CCOC(=O)C1=C(N)N(c2ccccc2)C2=C(C(=O)CC(C)(C)C2)C1c1ccc(F)cc1 (racemic) [8a] :: < 10%
CCOC(=O)C1=C(N)N(c2ccccc2)C2=C(C(=O)CC(C)(C)C2)C1c1ccc(Cl)cc1Cl (racemic) [10c] :: 72%

Problem: Return reported inhibition at 10 µM; argument: CCOC(=O)C1=C(N)N(c2ccc(Cl)cc2)C2=C(C(=O)CC(C)(C)C2)C1c1ccccc1Br (racemic) [6f]
Solution: 40%

Problem: Likewise for CCOC(=O)C1=C(N)N(c2ccc(Cl)cc2)C2=C(C(=O)CC(C)(C)C2)C1c1ccc(F)cc1 (racemic) [8b] ?
Solution: 21%

Problem: Input CCOC(=O)C1=C(N)N(c2ccccc2)C2=C(C(=O)CC(C)(C)C2)C1c1ccccc1OC (racemic) [6g]
Solution: < 10%

Problem: Similarly, CCOC(=O)C1=C(N)N(c2ccc(C)cc2)C2=C(C(=O)CC(C)(C)C2)C1c1ccc(Cl)cc1 (racemic) [8d] ?
Solution: < 10%

----------
System: U251
Experiment: NCI-60 anticancer screening (SRB)
Assay type: cell-based
Conditions: Homo sapiens, U-251; U251, CNS cancer; one dose 10 μM; read-out: Growth Inhibition Percentage (GI %)
test.readout: inhibition at 10 µM

CCOC(=O)C1=C(N)N(c2ccc(Cl)cc2)C2=C(C(=O)CC(C)(C)C2)C1c1ccc(Cl)cc1 (racemic) [8e] :: 31%

Problem: So what inhibition at 10 µM did CCOC(=O)C1=C(N)N(c2ccccc2)C2=C(C(=O)CC(C)(C)C2)C1c1cccnc1 (racemic) [12d] get with U251?
Solution: < 10%

Problem: One more molecule: CCOC(=O)C1=C(N)N(c2ccccc2)C2=C(C(=O)CC(C)(C)C2)C1c1cccc(Cl)c1Cl (racemic) [10a]
Solution: 45%

Problem: Follow-up item: CCOC(=O)C1=C(N)N(c2ccc(C)cc2)C2=C(C(=O)CC(C)(C)C2)C1c1ccccc1OC (racemic) [6h]
Solution: < 10%

Problem: // same read-out, input: CCOC(=O)C1=C(N)N(c2ccc(Cl)cc2)C2=C(C(=O)CC(C)(C)C2)C1c1ccc(Cl)cc1Cl (racemic) [10d]
Solution: 58%

Problem: Same lookup for CCOC(=O)C1=C(N)N(c2ccc(Cl)cc2)C2=C(C(=O)CC(C)(C)C2)C1c1cccnc1 (racemic) [12f] , please.
Solution: < 10%

----------
# maps each entry to its pIC50
Molecular target: EGFR^WT (Homo sapiens, UniProt P00533)
Sequence (P00533 25-1210): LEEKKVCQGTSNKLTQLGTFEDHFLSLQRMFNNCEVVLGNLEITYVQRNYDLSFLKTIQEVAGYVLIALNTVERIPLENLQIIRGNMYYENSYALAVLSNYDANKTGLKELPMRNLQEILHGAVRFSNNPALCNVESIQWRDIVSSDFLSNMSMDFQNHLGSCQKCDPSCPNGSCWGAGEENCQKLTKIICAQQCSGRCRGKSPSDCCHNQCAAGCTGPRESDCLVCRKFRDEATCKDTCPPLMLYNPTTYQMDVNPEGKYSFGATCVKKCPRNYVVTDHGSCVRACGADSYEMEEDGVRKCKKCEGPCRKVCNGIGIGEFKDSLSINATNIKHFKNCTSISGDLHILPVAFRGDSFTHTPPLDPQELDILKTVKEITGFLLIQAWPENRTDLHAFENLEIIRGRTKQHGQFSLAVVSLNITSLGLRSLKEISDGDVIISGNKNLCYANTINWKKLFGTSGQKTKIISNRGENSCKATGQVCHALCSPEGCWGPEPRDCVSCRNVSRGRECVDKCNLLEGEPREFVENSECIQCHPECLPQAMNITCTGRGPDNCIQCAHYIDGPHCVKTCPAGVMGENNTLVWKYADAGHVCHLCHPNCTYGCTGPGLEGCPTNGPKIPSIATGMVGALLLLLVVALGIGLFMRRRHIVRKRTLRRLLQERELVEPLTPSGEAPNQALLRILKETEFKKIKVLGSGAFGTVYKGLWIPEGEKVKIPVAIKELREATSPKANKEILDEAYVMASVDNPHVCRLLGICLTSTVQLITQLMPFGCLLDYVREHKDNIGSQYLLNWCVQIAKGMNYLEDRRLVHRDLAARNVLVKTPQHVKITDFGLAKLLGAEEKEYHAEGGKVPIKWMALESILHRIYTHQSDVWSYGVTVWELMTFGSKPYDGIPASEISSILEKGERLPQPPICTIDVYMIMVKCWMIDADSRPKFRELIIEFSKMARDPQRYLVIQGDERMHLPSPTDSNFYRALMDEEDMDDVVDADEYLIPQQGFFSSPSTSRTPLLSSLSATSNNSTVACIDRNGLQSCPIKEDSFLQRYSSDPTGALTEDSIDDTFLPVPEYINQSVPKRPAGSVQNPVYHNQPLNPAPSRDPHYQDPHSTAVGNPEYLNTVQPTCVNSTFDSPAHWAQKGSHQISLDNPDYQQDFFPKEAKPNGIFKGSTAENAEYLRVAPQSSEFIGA
Test: EGFR kinase inhibitory assay (HTRF)
pIC50 here is simply -log10 of the concentration when that concentration is written in mol/L.

Examples with their reported pIC50 follow.
CCOC(=O)C1=C(N)N(c2ccc(C)cc2)C2=C(C(=O)CC(C)(C)C2)C1c1ccccc1Br (racemic) :: 6.75
CCOC(=O)C1=C(N)N(c2ccccc2)C2=C(C(=O)CC(C)(C)C2)C1c1ccc(Cl)cc1 (racemic) :: 6.71
CCOC(=O)C1=C(N)N(c2ccccc2)C2=C(C(=O)CC(C)(C)C2)C1c1ccccc1Br (racemic) :: 7.00
CCOC(=O)C1=C(N)N(c2ccc(Cl)cc2)C2=C(C(=O)CC(C)(C)C2)C1c1ccc(Cl)cc1 (racemic) :: 6.52
CCOC(=O)C1=C(N)N(c2ccc(Cl)cc2)C2=C(C(=O)CC(C)(C)C2)C1c1ccc(F)cc1 (racemic) :: 6.73
CCOC(=O)C1=C(N)N(c2ccc(Cl)cc2)C2=C(C(=O)CC(C)(C)C2)C1c1ccc(Cl)cc1Cl (racemic) [10d] :: 7.01

Shifting focus to the molecule that follows.
Problem: Value lookup for pIC50; key = CCOC(=O)C1=C(N)N(c2ccc(Cl)cc2)C2=C(C(=O)CC(C)(C)C2)C1c1cccc(Cl)c1Cl (racemic) [10b]
Solution: 6.69

----------
System: SNB-19
Test: NCI-60 anticancer screening (SRB)
Type: cell-based
Conditions: Homo sapiens; SNB-19, CNS cancer; one dose 10 μM; read-out: Growth Inhibition Percentage (GI %)
test.readout: inhibition at 10 µM (%)
The figure you give is taken to be in %; do not add the unit.

CCOC(=O)C1=C(N)N(c2ccc(Cl)cc2)C2=C(C(=O)CC(C)(C)C2)C1c1ccccc1Br (racemic) :: 11

Problem: Requested field: inhibition at 10 µM. Item: CCOC(=O)C1=C(N)N(c2ccccc2)C2=C(C(=O)CC(C)(C)C2)C1c1ccc(Cl)cc1Cl (racemic) [10c]
Solution: 72

Problem: What about CCOC(=O)C1=C(N)N(c2ccccc2)C2=C(C(=O)CC(C)(C)C2)C1c1ccc(OC)cc1 (racemic) ?
Solution: 14

Problem: Now the compound CCOC(=O)C1=C(N)N(c2ccc(Cl)cc2)C2=C(C(=O)CC(C)(C)C2)C1c1ccccc1Cl (racemic)
Solution: 27

Problem: Same question, CCOC(=O)C1=C(N)N(c2ccc(C)cc2)C2=C(C(=O)CC(C)(C)C2)C1c1ccccc1Br (racemic) this time
Solution: 13

Problem: // repeat for CCOC(=O)C1=C(N)N(c2ccc(Cl)cc2)C2=C(C(=O)CC(C)(C)C2)C1c1cccc(Cl)c1Cl (racemic) [10b] and report
Solution: 22
